The measurements presented in this section are drawn from ChEMBL document CHEMBL4024771.

- Target System: Histone-lysine N-methyltransferase EZH2 (Homo sapiens)
- Sequence (Q15910 whole entry): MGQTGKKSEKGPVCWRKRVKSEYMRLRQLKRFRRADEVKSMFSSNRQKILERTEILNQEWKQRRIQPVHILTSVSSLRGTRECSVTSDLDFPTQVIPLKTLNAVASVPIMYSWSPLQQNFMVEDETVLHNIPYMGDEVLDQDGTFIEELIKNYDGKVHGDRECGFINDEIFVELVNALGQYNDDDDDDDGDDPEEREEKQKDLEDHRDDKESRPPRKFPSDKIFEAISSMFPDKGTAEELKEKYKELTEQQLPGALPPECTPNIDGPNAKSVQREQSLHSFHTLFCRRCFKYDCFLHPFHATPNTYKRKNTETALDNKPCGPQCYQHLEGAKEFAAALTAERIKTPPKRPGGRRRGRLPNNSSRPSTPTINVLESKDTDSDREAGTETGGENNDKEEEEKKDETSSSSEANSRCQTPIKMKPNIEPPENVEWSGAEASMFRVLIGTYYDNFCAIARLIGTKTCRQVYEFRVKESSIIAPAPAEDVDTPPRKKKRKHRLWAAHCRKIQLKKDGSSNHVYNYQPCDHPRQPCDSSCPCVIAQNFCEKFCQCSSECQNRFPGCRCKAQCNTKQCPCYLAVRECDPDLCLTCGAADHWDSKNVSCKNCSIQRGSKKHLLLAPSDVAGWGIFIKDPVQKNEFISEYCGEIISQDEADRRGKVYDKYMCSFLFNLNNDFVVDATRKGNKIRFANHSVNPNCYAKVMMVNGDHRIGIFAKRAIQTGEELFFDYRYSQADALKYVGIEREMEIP
- Test Protocol: Inhibition of EZH2 in human KARPAS422 cells assessed as reduction in H3K27me3 level after 72 hrs by ELISA
In this section, each of the compounds is paired with its reported IC50.
Give the value, in units of nM, as a plain number.

Answered cases to consult:
Cc1cc(C)c(CN2CCc3c(Cl)cc([C@H](CO)[C@H]4CCOC4)c(Cl)c3C2=O)c(=O)[nH]1 :: 10
Cc1cc(C)c(CN2CCc3c(Cl)cc([C@@H](C)CO)c(Cl)c3C2=O)c(=O)[nH]1 :: 1040
CCC(O)c1cc(Cl)c2c(c1Cl)C(=O)N(Cc1c(C)cc(C)[nH]c1=O)CC2 (stereo in doubt; (-)-3b) :: 5350
COC(c1cc(Cl)c2c(c1Cl)C(=O)N(Cc1c(C)cc(C)[nH]c1=O)CC2)C1CCOC1 (single isomer, unassigned; (+)-10a) :: 7
COC(c1cc(Cl)c2c(c1Cl)C(=O)N(Cc1c(C)cc(C)[nH]c1=O)CC2)C1CCN(C(=O)CO)CC1 (stereo in doubt; (+)-16a) :: 13

Please state recorded IC50 (tested on Histone-lysine N-methyltransferase EZH2 (Homo sapiens)) of COC(c1cc(Cl)c2c(c1Cl)C(=O)N(Cc1c(C)cc(C)[nH]c1=O)CC2)C1CCOCC1 (single isomer, unassigned; (-)) 1460

Record lookup: for Histone-lysine N-methyltransferase EZH2 (Homo sapiens), what IC50 belongs to Cc1cc(C)c(CN2CCc3c(Cl)cc(C(CO)C4CCOC4)c(Cl)c3C2=O)c(=O)[nH]1 (stereo in doubt) ? 1010
